Target: cFMS (Homo sapiens, UniProt P07333)
Construct: THP-1 cells (human acute monocytic leukemia cell line) were serum-starved for 4 hours; endogenous in cells
Sequence (P07333 20-972): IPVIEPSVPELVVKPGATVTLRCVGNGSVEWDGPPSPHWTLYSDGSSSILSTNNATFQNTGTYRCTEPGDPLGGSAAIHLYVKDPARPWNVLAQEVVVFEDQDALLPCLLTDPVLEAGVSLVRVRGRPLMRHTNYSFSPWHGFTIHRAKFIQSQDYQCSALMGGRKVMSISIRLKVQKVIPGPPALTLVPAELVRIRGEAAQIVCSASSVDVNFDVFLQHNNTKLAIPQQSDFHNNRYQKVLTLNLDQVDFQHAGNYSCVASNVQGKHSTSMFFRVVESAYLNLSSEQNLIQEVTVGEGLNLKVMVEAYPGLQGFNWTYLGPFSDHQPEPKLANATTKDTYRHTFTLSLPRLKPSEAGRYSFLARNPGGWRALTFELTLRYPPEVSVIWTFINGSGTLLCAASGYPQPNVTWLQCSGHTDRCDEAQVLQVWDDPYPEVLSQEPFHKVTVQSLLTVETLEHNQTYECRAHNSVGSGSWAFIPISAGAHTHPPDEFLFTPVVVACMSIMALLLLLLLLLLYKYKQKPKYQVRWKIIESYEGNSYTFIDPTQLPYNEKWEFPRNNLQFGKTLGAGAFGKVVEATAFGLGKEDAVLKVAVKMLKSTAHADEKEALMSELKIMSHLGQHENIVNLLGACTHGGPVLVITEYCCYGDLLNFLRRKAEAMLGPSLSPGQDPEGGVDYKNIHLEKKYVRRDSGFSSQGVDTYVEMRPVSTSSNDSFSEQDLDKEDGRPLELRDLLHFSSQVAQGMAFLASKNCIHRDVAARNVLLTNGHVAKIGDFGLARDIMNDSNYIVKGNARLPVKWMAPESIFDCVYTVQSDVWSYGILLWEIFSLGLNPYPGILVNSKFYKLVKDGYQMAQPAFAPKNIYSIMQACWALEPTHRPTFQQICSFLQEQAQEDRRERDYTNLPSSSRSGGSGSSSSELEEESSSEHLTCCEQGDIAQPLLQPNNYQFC
Assay: cFMS Cell-Based Assay (Example C)
Conditions: averaged IC50; phospho-cFMS in THP-1 cells stimulated with 250 ng/mL recombinant human MCSF; read-out: cFMS Cell ELISA IC50
Where a name gives a salt, the structure may show the parent alone.
readoutType: IC50 (nM)

(1) COCCOc1ccn2c(C(=O)Nc3cccc4c3cnn4Cc3cccnc3C)cnc2c1
(2) C[C@H]1CN(CCOc2ccn3c(C(=O)Nc4cccc5c4c(Cl)nn5Cc4cccc(C5CC5)n4)cnc3c2)CCN1C
(3) CC(C)N1CCN(CCOc2ccn3c(C(=O)Nc4cccc5c4c(F)nn5Cc4cccc(C5CC5)n4)cnc3c2)CC1
(4) COCCOc1ccn2c(C(=O)Nc3cccc4c3cnn4CC3CCCNC3)cnc2c1 (stereo not shown) [Example 131, hydrochloride]
(5) CCOc1cccc(Cn2ncc3c(NC(=O)c4cnc5cc(OCCN6CCN(C)CC6)ccn45)cccc32)n1
Problem: Rank the items above by IC50, largest value first. Respond with the label ranking, as requested.
Solution: 4, 1, 2, 3, 5

(1) COCCOc1ccn2c(C(=O)Nc3cccc4c3cnn4Cc3cccc(C)c3)cnc2c1
(2) Cc1nn(Cc2cccc(C3CCCC3)n2)c2cccc(NC(=O)c3cnc4cc(OCCN5CCN(C)[C@@H](C)C5)ccn34)c12
Problem: Input pair: 1 , 2 . Output: entry with lower IC50. State the label of the item chosen.
Solution: 1

Data credit: patent US10669269B2
